# method: The pharmacokinetics of Telithromycin evaluated after administration of multiple 800-mg doses to healthy adult subjects.
# Type: ADME, organism-based
# Parameters: dose 800 mg, route oral
# measurement context: human, in vivo, po, 800 mg; dosed compound id 4, dosed compound name TELITHROMYCIN, gender adult male and female, regimen Multiple dose, tissue Plasma; read-out: AUC(0-24)
property name: AUC (ng·h/mL)

[[record]]
item_smiles = "CC[C@H]1OC(=O)[C@H](C)C(=O)[C@H](C)[C@@H](O[C@@H]2O[C@H](C)C[C@H](N(C)C)[C@H]2O)[C@](C)(OC)C[C@@H](C)C(=O)[C@H](C)[C@H]2N(CCCCn3cnc(-c4cccnc4)c3)C(=O)O[C@]12C"
property_name = "AUC"
number = 12500


----------
# method: The pharmacokinetics of Telithromycin evaluated after administration of single 800-mg doses to healthy adult subjects.
# Format: ADME, organism-based
# Parameters: dose 800 mg, route oral
# measurement context: human, in vivo, po, 800 mg; dosed compound id 4, dosed compound name TELITHROMYCIN, gender adult male and female, regimen Single dose, tissue Plasma
property name: Cmax (ng/mL)

[[record]]
item_smiles = "CC[C@H]1OC(=O)[C@H](C)C(=O)[C@H](C)[C@@H](O[C@@H]2O[C@H](C)C[C@H](N(C)C)[C@H]2O)[C@](C)(OC)C[C@@H](C)C(=O)[C@H](C)[C@H]2N(CCCCn3cnc(-c4cccnc4)c3)C(=O)O[C@]12C"
property_name = "Cmax"
value_unit = "ng/mL"
number = 1900


----------
# method: The pharmacokinetics of Telithromycin evaluated after administration of single 800-mg doses to healthy adult subjects.
# Format: ADME, organism-based
# Set-up: dose 800 mg, route oral
# measurement context: human, in vivo; dose 800 mg, dosed compound id 4, dosed compound name TELITHROMYCIN, gender adult male and female, regimen Single dose, route oral, tissue Plasma
property name: half-life (h)

[[record]]
item_smiles = "CC[C@H]1OC(=O)[C@H](C)C(=O)[C@H](C)[C@@H](O[C@@H]2O[C@H](C)C[C@H](N(C)C)[C@H]2O)[C@](C)(OC)C[C@@H](C)C(=O)[C@H](C)[C@H]2N(CCCCn3cnc(-c4cccnc4)c3)C(=O)O[C@]12C"
number = 7.16

